Biological target: NaV1.7 (Homo sapiens)
Construct: expressed in transfected cells; tetracycline-inducible, kept under hygromycin and blasticidin
Assay: Whole cell patch clamp, internal block of NaV1.7 current (compound in internal solution)
Assay type: cell-based
Conditions: % inhibition at 10 μM, compound applied internally, manual patch clamp; read-out: Nav1.7 Intracellular Inhibition
Experimental: Representative compounds of the invention were synthesized according to the described methods and tested for the ability to inhibit voltage-gated sodium channels. NaV1.7 was expressed upon induction with tetracycline. […] Once the recording was started, the voltage protocol was run at 30 second intervals for 5 minutes to get a stable baseline. […] Currents were recorded using PatchMaster software with Heka EPC10 (HEKA Electronics, Lambrecht, Germany). […]
Observable: inhibition at 10 µM

The examples below pair each entry with its known result.
Cc1cccc(C)c1NC(=O)C[n+]1cc(F)cc(-c2ccccc2)c1 ... > 95%
Cc1cccc(C)c1NC(=O)C[n+]1cccn1CC#N ... 40 to 70%
Cc1cccc(C)c1NC(=O)C[n+]1cc(OCc2ccccc2)ccc1Cl ... > 95%
Cc1cccc(C)c1NC(=O)C[n+]1ccccc1-c1ccccc1.[Br-] [Compound 16A] ... > 95%
CCCCn1ccc[n+]1CC(=O)Nc1c(C)cccc1C ... 70 to 95%

Given the entry CCOC(=O)Cn1cc[n+](CC(=O)Nc2c(C)cccc2C)c1 , report its measured inhibition at 10 µM.
40 to 70%

Any idea what its inhibition at 10 µM is? The molecule is Cc1cccc(C)c1NC(=O)C[n+]1ccnc(C)c1C
40 to 70%

Recorded inhibition at 10 µM for Cc1cccc(C)c1NC(=O)C[n+]1cccc(N2CCCC2)c1 , please?
> 95%

# lookup: inhibition at 10 µM of CCCn1ccc(C)[n+]1CC(=O)Nc1c(C)cccc1C
70 to 95%

Reported inhibition at 10 µM, molecule CCOC(=O)c1cc(C)[n+](CC(=O)Nc2c(C)cccc2C)n1C : ____
70 to 95%

Which measured inhibition at 10 µM value corresponds to Cc1cccc(C)c1NC(=O)C[n+]1cccc(O)c1 ?
< 40%

Given CC(=O)Nc1ccc[n+](CC(=O)Nc2c(C)cccc2C)c1 , state its recorded inhibition at 10 µM.
> 95%

Form field: reported inhibition at 10 µM of Cc1cccc(C)c1NC(=O)C[n+]1cc2ccccc2n1C
70 to 95%

// lookup inhibition at 10 µM for Cc1cccc(C)c1NC(=O)C(Cc1ccccc1)[n+]1ccccc1 (stereo not drawn)
> 95%

Fill in: inhibition at 10 µM of Cc1cccc(C)c1NC(=O)C[n+]1cccc(F)c1 is ___
70 to 95%

Could you tell me which inhibition at 10 µM is on file for CCCn1c(C)cc[n+]1CC(=O)Nc1c(C)cccc1C ?
70 to 95%

Bench note: what inhibition at 10 µM did Cc1cccc(C)c1NC(=O)Cn1cc[n+](CC(=O)Nc2c(C)cccc2C)c1 show?
70 to 95%

Entry CNC(=O)c1ccc[n+](CC(=O)Nc2c(C)cccc2C)c1 : reported inhibition at 10 µM = ?
70 to 95%

I am curious: what inhibition at 10 µM value has been reported for Cc1cccc(C)c1NC(=O)C[n+]1cccc(C(C)C)c1 [Compound 31A] ?
70 to 95%

Would you kindly share the measured inhibition at 10 µM for CCCn1cc[n+](CC(=O)Nc2c(C)cccc2C)c1 ?
70 to 95%

Request the reported inhibition at 10 µM associated with Cc1ccc[n+](CC(=O)Nc2c(C)cccc2C)c1
70 to 95%

Need inhibition at 10 µM, item Cc1cccc(C)c1NC(=O)C[n+]1cccn1CC1CC1
> 95%

###

Target: NaV1.7 (Homo sapiens, UniProt Q15858)
Construct: expressed in transfected cells; tetracycline-inducible, kept under hygromycin and blasticidin
Sequence (Q15858 whole entry): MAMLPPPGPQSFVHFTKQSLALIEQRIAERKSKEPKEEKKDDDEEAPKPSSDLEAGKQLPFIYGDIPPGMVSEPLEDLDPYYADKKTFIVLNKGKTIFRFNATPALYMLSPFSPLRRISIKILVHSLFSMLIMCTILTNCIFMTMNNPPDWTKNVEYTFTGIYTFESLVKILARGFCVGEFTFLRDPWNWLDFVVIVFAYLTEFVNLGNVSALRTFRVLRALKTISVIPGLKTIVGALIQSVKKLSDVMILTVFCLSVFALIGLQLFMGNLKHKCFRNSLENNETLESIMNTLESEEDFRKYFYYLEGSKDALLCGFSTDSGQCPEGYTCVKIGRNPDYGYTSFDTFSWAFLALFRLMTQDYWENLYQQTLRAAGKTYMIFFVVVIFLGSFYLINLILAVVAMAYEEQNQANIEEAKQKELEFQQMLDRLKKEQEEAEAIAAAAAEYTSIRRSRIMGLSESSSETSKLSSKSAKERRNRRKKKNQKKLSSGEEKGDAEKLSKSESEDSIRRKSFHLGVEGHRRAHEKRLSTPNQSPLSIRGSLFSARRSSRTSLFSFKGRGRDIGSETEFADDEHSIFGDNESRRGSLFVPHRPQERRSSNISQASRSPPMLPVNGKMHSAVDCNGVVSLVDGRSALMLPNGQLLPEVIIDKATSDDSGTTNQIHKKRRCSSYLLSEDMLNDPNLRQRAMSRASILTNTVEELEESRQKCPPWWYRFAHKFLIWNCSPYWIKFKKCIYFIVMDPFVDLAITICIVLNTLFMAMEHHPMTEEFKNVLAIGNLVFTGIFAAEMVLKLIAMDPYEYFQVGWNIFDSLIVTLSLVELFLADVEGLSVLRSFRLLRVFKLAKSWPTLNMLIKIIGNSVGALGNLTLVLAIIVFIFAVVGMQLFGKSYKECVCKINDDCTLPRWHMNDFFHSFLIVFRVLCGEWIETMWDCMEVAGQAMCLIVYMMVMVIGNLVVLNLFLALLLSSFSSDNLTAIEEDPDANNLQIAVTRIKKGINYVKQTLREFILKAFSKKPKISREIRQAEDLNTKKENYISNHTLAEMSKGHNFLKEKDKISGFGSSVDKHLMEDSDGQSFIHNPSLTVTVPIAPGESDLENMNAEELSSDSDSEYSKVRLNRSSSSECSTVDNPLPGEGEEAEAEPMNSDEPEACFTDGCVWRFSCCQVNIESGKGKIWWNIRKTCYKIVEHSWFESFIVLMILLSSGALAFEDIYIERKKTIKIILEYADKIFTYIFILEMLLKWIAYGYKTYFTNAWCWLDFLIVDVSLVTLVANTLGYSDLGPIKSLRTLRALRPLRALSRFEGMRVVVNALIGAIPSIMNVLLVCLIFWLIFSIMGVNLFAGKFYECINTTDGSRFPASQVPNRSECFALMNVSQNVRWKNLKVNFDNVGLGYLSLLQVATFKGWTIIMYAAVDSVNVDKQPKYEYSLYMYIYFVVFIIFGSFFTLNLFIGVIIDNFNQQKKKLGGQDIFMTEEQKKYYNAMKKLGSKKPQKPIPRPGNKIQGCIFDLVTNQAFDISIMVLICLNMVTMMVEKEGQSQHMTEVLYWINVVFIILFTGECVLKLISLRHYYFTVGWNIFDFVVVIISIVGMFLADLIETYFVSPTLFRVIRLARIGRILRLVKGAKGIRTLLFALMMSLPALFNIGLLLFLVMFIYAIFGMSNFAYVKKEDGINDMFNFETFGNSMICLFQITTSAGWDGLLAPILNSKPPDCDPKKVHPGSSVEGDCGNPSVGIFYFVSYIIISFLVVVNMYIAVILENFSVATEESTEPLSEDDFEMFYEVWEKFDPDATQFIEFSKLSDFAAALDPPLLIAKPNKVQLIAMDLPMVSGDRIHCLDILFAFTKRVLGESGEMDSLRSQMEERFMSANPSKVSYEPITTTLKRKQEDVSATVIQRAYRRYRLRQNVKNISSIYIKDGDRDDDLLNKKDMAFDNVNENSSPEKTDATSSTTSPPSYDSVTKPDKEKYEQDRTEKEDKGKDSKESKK
Assay: Whole cell patch clamp, internal block of NaV1.7 current (compound in internal solution)
Format: cell-based
Conditions: % inhibition at 10 μM, compound applied internally, manual patch clamp; read-out: Nav1.7 Intracellular Inhibition
Observable: inhibition at 10 µM

Take a look at these entries with their results.
CNC(=O)Cc1ccc[n+](CC(=O)Nc2c(C)cccc2C)c1 ... 70 to 95%
Cc1cccc(C)c1NC(=O)C[n+]1cccc(S(=O)(=O)N(C)C)c1 ... 70 to 95%
Cc1cccc(C)c1NC(=O)C[n+]1ccn(-c2ccccc2)c1 ... 70 to 95%
CCOC(=O)CCCn1ccc[n+]1CC(=O)Nc1c(C)cccc1C ... > 95%

// next item, inhibition at 10 µM requested
Give recorded inhibition at 10 µM with NaV1.7 (Homo sapiens, UniProt Q15858) for the following compound: Cc1cccc(C)c1NC(=O)Cn1ccc[n+]1CC(=O)Nc1c(C)cccc1C
> 95%

Source listed as patent US10934263B2.
